Test system: Enterococcus faecalis
Assay: Antibacterial activity against Enterococcus faecalis OG1RF incubated for 72 hrs
Type: functional
measuredEndpoint: MIC (µM)
Answer format: numeric, µM implied, no suffix.

Some compounds with known MIC results, for comparison:
> print(dat)
                                 smilescode  measuredendpoint  unitlabel  recordedmeasurement
1  CCCCCCCCCCOC(=O)C[N+](C)(C)CCN1CC[N+](C)(CC(=O)OCCCCCCCCCC)CC1.[Br-].[Br-]               MIC         µM                    4
2  CCCCCCCCOC(=O)C[N+](C)(C)CCC[N+](C)(CCC[N+](C)(C)CC(=O)OCCCCCCCC)CC(=O)OCCCCCCCC.[Br-].[Br-].[Br-]               MIC         µM                   16
3  CCCCCCCCOC(=O)C[N+](C)(C)CCN1CC[N+](C)(CC(=O)OCCCCCCCC)CC1.[Br-].[Br-]               MIC         µM                   63

Item CCCCCCCCCCCCOC(=O)C[N+](C)(C)CCCN(CCC[N+](C)(C)CC(=O)OCCCCCCCCCCCC)CCC[N+](C)(C)CC(=O)OCCCCCCCCCCCC.[Br-].[Br-].[Br-] has what recorded MIC? 8

Param item = CCCCCCCCCCCCOC(=O)C[N+](C)(C)CCN1CC[N+](C)(CC(=O)OCCCCCCCCCCCC)CC1.[Br-].[Br-] ; retrieve measured MIC. 32

Item CCCCCCCCCCNC(=O)C[N+](C)(C)CCN1CC[N+](C)(CC(=O)NCCCCCCCCCC)CC1.[Br-].[Br-] has what recorded MIC? 0.5

* * *

Tested on: Enterococcus faecalis
Assay: Antibacterial activity against Enterococcus faecalis OG1RF incubated for 72 hrs
Type: functional
measuredEndpoint: MIC (µM)
The reply should contain only the number, in µM.

> print(dat)
                                 smilescode  measuredendpoint  unitlabel  recordedmeasurement
1  CCCCCCCCCCCCOC(=O)C[N+](C)(C)Cc1ccccc1.[Br-]               MIC         µM                    4

Below: the item to evaluate.
Could you tell me which MIC is on file for CCCCCCOC(=O)C[N+](C)(C)CCCN(CCC[N+](C)(C)CC(=O)OCCCCCC)CCC[N+](C)(C)CC(=O)OCCCCCC.[Br-].[Br-].[Br-] ? 250

* * *

Tested on: Enterococcus faecalis
Assay: Antibacterial activity against Enterococcus faecalis OG1RF incubated for 72 hrs
Assay type: functional
Measured log10(MIC), listed per entry for reference.
Could you please treat all values as log10 of MIC in µM?

Below are worked cases with known answers.
> print(dat)
                                 smilescode  measuredendpoint  recordedmeasurement
1  CCCCCCCOC(=O)C[N+](C)(C)CCCN(CCC[N+](C)(C)CC(=O)OCCCCCCC)CCC[N+](C)(C)CC(=O)OCCCCCCC.[Br-].[Br-].[Br-]        log10(MIC)                 1.51
2  CCCCCCCCOC(=O)C[N+](C)(C)CC[N+](C)(C)CC(=O)OCCCCCCCC.[Br-].[Br-]        log10(MIC)                 1.80
3  CCCCCCCCCCNC(=O)C[N+](C)(C)CCC[N+](C)(CCC[N+](C)(C)CC(=O)NCCCCCCCCCC)CC(=O)NCCCCCCCCCC.[Br-].[Br-].[Br-]        log10(MIC)                 0.30
4  CCCCCCCCCCOC(=O)C[N+](C)(C)CCC[N+](C)(CCC[N+](C)(C)CC(=O)OCCCCCCCCCC)CC(=O)OCCCCCCCCCC.[Br-].[Br-].[Br-]        log10(MIC)                 0.90

Consider the compound shown here: CCCCCCCCOC(=O)C[N+](C)(C)Cc1ccccc1.[Br-] What is its recorded log10(MIC)? 2.40

Tell me the measured log10(MIC) of CCCCCCCCCCOC(=O)C[N+](C)(C)Cc1ccccc1.[Br-] , please. 1.51

Tell me the measured log10(MIC) of CCCCCCCCCCCCCCOC(=O)C[N+](C)(C)CC[N+](C)(C)CC(=O)OCCCCCCCCCCCCCC.[Br-].[Br-] , please. 1.51

So what's the measured log10(MIC) for this one? CCCCCCCCCOC(=O)C[N+](C)(C)Cc1ccccc1.[Br-] 2.10

* * *

System: Enterococcus faecalis
Test: Antibacterial activity against Enterococcus faecalis OG1RF incubated for 72 hrs
Format: functional
Some molecules, each annotated with its measured MIC.
Give the quantity in µM, number only.

Observe how each entry below is paired with its result.
smilesCode	unitLabel	recordedMeasurement
CCCCCCCCCCNC(=O)C[N+](C)(C)CCCN(CCC[N+](C)(C)CC(=O)NCCCCCCCCCC)CCC[N+](C)(C)CC(=O)NCCCCCCCCCC.[Br-].[Br-].[Br-]	µM	1
CCCCCCCCCOC(=O)C[N+](C)(C)CCCN(CCC[N+](C)(C)CC(=O)OCCCCCCCCC)CCC[N+](C)(C)CC(=O)OCCCCCCCCC.[Br-].[Br-].[Br-]	µM	8
CCCCCCCCCCCCOC(=O)C[N+](C)(C)CC[N+](C)(C)CC(=O)OCCCCCCCCCCCC.[Br-].[Br-]	µM	32
CCCCCCCCCCOC(=O)C[N+](C)(C)CC[N+](C)(C)CC(=O)OCCCCCCCCCC.[Br-].[Br-]	µM	16
CCCCCCCCCCNC(=O)C[N+](C)(C)Cc1ccccc1.[Br-]	µM	16
CCCCCCCCCCCCCCOC(=O)C[N+](C)(C)CCC[N+](C)(CCC[N+](C)(C)CC(=O)OCCCCCCCCCCCCCC)CC(=O)OCCCCCCCCCCCCCC.[Br-].[Br-].[Br-]	µM	32
CCCCCCCCCOC(=O)C[N+](C)(C)CC[N+](C)(C)CC(=O)OCCCCCCCCC.[Br-].[Br-]	µM	16
CCCCCCCCOC(=O)C[N+](C)(C)CCCN(CCC[N+](C)(C)CC(=O)OCCCCCCCC)CCC[N+](C)(C)CC(=O)OCCCCCCCC.[Br-].[Br-].[Br-]	µM	8

Give the reported MIC for CCCCCCCCCCCCCCOC(=O)C[N+](C)(C)CCCN(CCC[N+](C)(C)CC(=O)OCCCCCCCCCCCCCC)CCC[N+](C)(C)CC(=O)OCCCCCCCCCCCCCC.[Br-].[Br-].[Br-] (system: Enterococcus faecalis). 16

Give the reported MIC for CCCCCCCCCCNC(=O)C[N+](C)(C)CC[N+](C)(C)CC(=O)NCCCCCCCCCC.[Br-].[Br-] (system: Enterococcus faecalis). 1

* * *

Collected remaining at 16 h values appear next to each entry.
Assay: Stability in buffer solution at pH 10 after 16 hrs by LCMS analysis
Assay type: physicochemical
Conditions: read-out: Stability

> print(dat)
                                 smilescode  recordedmeasurement
1  CCCCCCCCCCNC(=O)C[N+](C)(C)CCCN(CCC[N+](C)(C)CC(=O)NCCCCCCCCCC)CCC[N+](C)(C)CC(=O)NCCCCCCCCCC.[Br-].[Br-].[Br-]                > 80%

In the following, a different compound is considered.
Given CCCCCCCCCCNC(=O)C[N+](C)(C)CCN1CC[N+](C)(CC(=O)NCCCCCCCCCC)CC1.[Br-].[Br-] , state its recorded remaining at 16 h. > 80%

* * *

Test system: Enterococcus faecalis
Assay: Antibacterial activity against Enterococcus faecalis OG1RF incubated for 72 hrs
Type: functional
MIC reference
Write the answer as a number in µM, unit excluded.

Past entries and their recorded results:
> print(dat)
                                 smilescode         targetorsystem  measuredendpoint  recordedmeasurement
1  CCCCCCCCCCCCCCOC(=O)C[N+](C)(C)Cc1ccccc1.[Br-]  Enterococcus faecalis               MIC                    4
2  CCCCCCCOC(=O)C[N+](C)(C)CCC[N+](C)(CCC[N+](C)(C)CC(=O)OCCCCCCC)CC(=O)OCCCCCCC.[Br-].[Br-].[Br-]  Enterococcus faecalis               MIC                   32

# context switch: different molecule, same MIC
Provide value of MIC for this record tested with Enterococcus faecalis: CCCCCCCCCOC(=O)C[N+](C)(C)CCN1CC[N+](C)(CC(=O)OCCCCCCCCC)CC1.[Br-].[Br-] 8

* * *

System: Enterococcus faecalis
Test: Antibacterial activity against Enterococcus faecalis OG1RF incubated for 72 hrs
Type: functional
measuredEndpoint: MIC (µM)
Please state the figure in µM; there is no need to write the unit.

Sample answers from the record:
> print(dat)
                                 smilescode         targetorsystem  recordedmeasurement
1  CCCCCCCCCCCCOC(=O)C[N+](C)(C)CCC[N+](C)(CCC[N+](C)(C)CC(=O)OCCCCCCCCCCCC)CC(=O)OCCCCCCCCCCCC.[Br-].[Br-].[Br-]  Enterococcus faecalis                    8
2  CCCCCCCCCCOC(=O)C[N+](C)(C)CCCN(CCC[N+](C)(C)CC(=O)OCCCCCCCCCC)CCC[N+](C)(C)CC(=O)OCCCCCCCCCC.[Br-].[Br-].[Br-]  Enterococcus faecalis                    8
3  CCCCCCOC(=O)C[N+](C)(C)CCC[N+](C)(CCC[N+](C)(C)CC(=O)OCCCCCC)CC(=O)OCCCCCC.[Br-].[Br-].[Br-]  Enterococcus faecalis                  250

What MIC value was documented for this compound, CCCCCCCCCOC(=O)C[N+](C)(C)CCC[N+](C)(CCC[N+](C)(C)CC(=O)OCCCCCCCCC)CC(=O)OCCCCCCCCC.[Br-].[Br-].[Br-] ? 16
